So I've got a bunch of molecules here, and I need their pIC50 values.
target: Amyloid-beta precursor protein (Homo sapiens); experiment: Inhibition of amyloid beta 42 (unknown origin) secretion
Sequence (P05067 whole entry): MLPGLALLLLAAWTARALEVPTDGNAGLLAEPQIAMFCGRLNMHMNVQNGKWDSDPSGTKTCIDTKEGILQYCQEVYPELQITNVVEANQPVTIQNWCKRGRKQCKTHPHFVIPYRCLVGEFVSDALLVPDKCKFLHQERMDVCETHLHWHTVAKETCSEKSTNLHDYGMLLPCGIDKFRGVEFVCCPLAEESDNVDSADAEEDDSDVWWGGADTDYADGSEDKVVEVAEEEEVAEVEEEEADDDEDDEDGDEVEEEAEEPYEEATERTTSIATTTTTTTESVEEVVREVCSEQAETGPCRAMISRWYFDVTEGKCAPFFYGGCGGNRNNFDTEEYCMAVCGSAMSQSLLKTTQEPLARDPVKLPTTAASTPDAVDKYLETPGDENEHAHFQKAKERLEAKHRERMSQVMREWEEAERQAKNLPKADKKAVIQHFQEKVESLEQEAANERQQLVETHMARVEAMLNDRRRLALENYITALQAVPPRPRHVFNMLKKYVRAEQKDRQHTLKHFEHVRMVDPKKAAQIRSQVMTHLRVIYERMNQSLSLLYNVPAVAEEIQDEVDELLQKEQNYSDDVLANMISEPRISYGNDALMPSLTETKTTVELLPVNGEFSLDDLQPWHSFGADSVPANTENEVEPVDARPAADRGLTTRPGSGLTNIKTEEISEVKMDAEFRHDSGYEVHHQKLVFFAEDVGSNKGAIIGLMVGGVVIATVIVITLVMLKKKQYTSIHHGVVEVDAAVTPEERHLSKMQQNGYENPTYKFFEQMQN
Friendly reminder that pIC50 comes from taking -log10 of the concentration in mol/L.

Q) In one line, give reported pIC50 of the entry COc1nc(-c2cc(C)c(N[C@@H](C)c3cc(F)c(F)c(F)c3)nn2)ccc1-n1cnc(C)c1 .
A) 8.28

Q) Look up and state reported pIC50 for COc1nc(-c2cc(C)c(N[C@@H](C)c3cc(F)cc(F)c3)nn2)ccc1-n1cnc(C)c1
A) 8.39
